test system: OR52cs F261A; assay: cAMP signaling assay, mutant; type: cell-based, human; conditions: Supplementary Table 3; N=3
measured.parameter: EC50 (µM)
Please reply with the bare figure in µM and do not write the unit itself.

Task: Give the reported value of EC50 for this record: CCCCCCCC(=O)O [Octanoate, octanoic acid]
Output: 506

---

system: OR52cs; test: cAMP signaling assay (cAMP sensor) in Hana3A cells; assay type: cell-based, human; conditions: Supplementary Table 3; N=5
measured.parameter: EC50
Please state the value followed by its unit.

Task: Look up and state reported EC50 for CCCCCCCC(=O)O [Octanoate, octanoic acid]
Output: 7.9 µM

---

Test system: OR52cs H183A
Test: cAMP signaling assay, mutant
Assay type: cell-based, human
Settings: Supplementary Table 3; N=3
Experimental: For cAMP assay, CRE luciferase assay, and surface ELISA, the full-length OR52cs construct was cloned into the pcDNA3.1 vector. The Lucy signal sequence and FLAG peptide sequence were added to the N-terminus. […] Hana3A cells were seeded on 96-well white microplates and transfected with OR52cs or the corresponding mutants and cAMP sensor (Promega). […] Basal luminescence was detected using a Tristar 2 LB 942 multimode reader (Berthold) until it reached a plateau. […]
measured.parameter: EC50

Task: Provide EC50, tested on OR52cs H183A, for CCCCCCCC(=O)O [Octanoate, octanoic acid] .
Output: 41.4 µM

The values you see were collected from paper PMC10703812.
